This section presents compounds with their documented IC50 values.
# target.desc: Fatty-acid amide hydrolase 1 (Homo sapiens, UniProt O00519)
# Sequence (O00519 whole entry): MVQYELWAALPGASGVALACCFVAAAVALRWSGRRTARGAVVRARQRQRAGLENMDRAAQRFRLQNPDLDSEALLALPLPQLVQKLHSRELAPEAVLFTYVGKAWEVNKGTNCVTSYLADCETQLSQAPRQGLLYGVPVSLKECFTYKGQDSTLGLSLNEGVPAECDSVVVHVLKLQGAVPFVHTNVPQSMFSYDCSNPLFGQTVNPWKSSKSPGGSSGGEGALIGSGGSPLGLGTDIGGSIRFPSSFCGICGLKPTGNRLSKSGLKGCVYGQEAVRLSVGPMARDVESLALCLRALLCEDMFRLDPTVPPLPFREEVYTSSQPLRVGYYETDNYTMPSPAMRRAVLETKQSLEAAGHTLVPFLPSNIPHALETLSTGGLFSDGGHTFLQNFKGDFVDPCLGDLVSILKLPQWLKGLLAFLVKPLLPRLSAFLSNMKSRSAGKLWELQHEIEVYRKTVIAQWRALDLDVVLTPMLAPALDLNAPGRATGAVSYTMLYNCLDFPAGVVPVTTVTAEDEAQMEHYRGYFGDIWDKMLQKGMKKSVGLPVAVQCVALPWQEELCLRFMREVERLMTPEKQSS
Express the result in nM but write the number alone.

Answered examples (6):
{"smiles.record": "O=C(Nc1noc2ccccc12)N1CC2(CCN(Cc3cccc(Oc4ccc(Cl)cc4)c3)CC2)C1", "IC50 [nM]": 900}
{"smiles.record": "O=C(Nc1cnccc1Cl)N1CC2(CCN(Cc3cccc(Oc4ccc(Cl)cc4)c3)CC2)C1", "IC50 [nM]": 8}
{"smiles.record": "O=C(Nc1noc2cccnc12)N1CC2(CCN(Cc3cccc(Oc4ccc(Cl)cc4)c3)CC2)C1", "IC50 [nM]": 177}
{"smiles.record": "O=C(Nc1ccc(-n2nccn2)nc1)N1CCC2(CC1)CN(Cc1cccc(Oc3ccc(Cl)cc3)c1)C2", "IC50 [nM]": 50}
{"smiles.record": "O=C(Nc1ccc(-n2nccn2)nc1)N1CC2(CCN(Cc3cccc(Oc4ccc(Cl)cc4)c3)CC2)C1", "IC50 [nM]": 31}
{"smiles.record": "O=C(Nc1cccnn1)N1CC2(CCN(Cc3cccc(Oc4ccc(Cl)cc4)c3)CC2)C1", "IC50 [nM]": 260}

Answer with reported IC50 of `O=C(Nc1cncc(F)c1)N1CC2(CCN(Cc3cccc(Oc4ccc(Cl)cc4)c3)CC2)C1`
173
